Source: PubChem BioAssay (NCI)

Test system: HOP-92 NSCLC
Assay: NCI-60 one-dose screen, 48 h
Settings: 10 µM unless noted
This is part of a sample that, as a whole, favours compounds with a hit. Of some 83,000 tested, about 20% had one in any assay. Active and inactive are the calls of the source. The calls were made as follows: active = growth percent below 10; inactive = the rest.
Hi! Could you answer with just one of these? 1 = active, 0 = inactive

Known results for molecules:
Molecule	Discrete Label
COc1ccc(-c2csc(NC(=O)CSc3nc(C)cc(=O)[nH]3)n2)cc1	0
COc1cc2cc(Oc3ccc(NC(=O)Nc4ccc(F)c(C(F)(F)F)c4)cc3)c(C)nc2cc1OCCN1CCCCC1	0
COc1cccc(CNc2nnc(C)c(C)n2)c1O	0
C(=N\Nc1nnc2n1N=C(c1ccccc1)CS2)/c1ccc(OCc2ccccc2)cc1	0
CC(=O)OCCOc1cc(Cl)c(Cl)cc1Cl	0

Task item: Hello, I am checking results. What call was entered for `COC(=O)CNC(=O)c1ccc(NC(=O)c2[nH]c(C)c(Cl)c2Cl)c(O[C@H]2CCNC2)c1` ?
Reply: 0

Task item: Follow-up entry: CC1=C(C(=O)OCc2ccccc2)C(c2ccc3c(c2)OCO3)n2c(nc3ccccc32)N1 (stereo not given)
Reply: 0

Task item: Follow-up entry: `CC(=O)Oc1ccccc1C(=O)N(Cc1ccc2c(Cl)cc(Cl)c(O)c2n1)c1ccccc1`
Reply: 0

Task item: Follow-up entry: `C=CC(=O)NCc1cccc(Nc2ncc(Br)c(NCCCNC(=O)C3CCC3)n2)c1`
Reply: 1

Task item: Follow-up entry: OC1CSSC1Cn1cnc2c(Nc3ccc(F)c(Cl)c3)ncnc21 (stereo not given)
Reply: 0

Task item: Follow-up entry: `O=C(/C=C/c1ccc([N+](=O)[O-])cc1)c1cccc(Nc2nc(Nc3ccccc3)nc(Nc3ccccc3)n2)c1`
Reply: 1

Task item: Follow-up entry: Nc1nc(N)c2c(n1)NC(c1ccc3c(c1)OCO3)CC(c1cccc(Nc3ccncc3)c1)=N2 (stereo not given)
Reply: 0

Task item: Follow-up entry: `COC(=O)[C@H](C)NC(=O)c1ccc(NC(=O)c2[nH]c(C)c(Cl)c2Cl)c(OCCN)c1`
Reply: 0

Task item: Follow-up entry: `CCOC(=O)c1c(C)n2c(=O)cc(C)c3c(OC(C)=O)c(OC(C)=O)cc1c32`
Reply: 0

Task item: Follow-up entry: `CN(C)CCOc1ccc(/C(=C(/CCCCCCCCCC[P+](c2ccccc2)(c2ccccc2)c2ccccc2)c2ccccc2)c2ccccc2)cc1`
Reply: 1

Task item: Follow-up entry: `COc1ccc(C2=C/C(=C\c3ccccc3O)C(=O)N2Cc2ccccc2)cc1`
Reply: 0
